pKi: −log10 of the molar value.
What follows is a record of pKi for UniProt:P43114.
observation_type: pKi

1. O=C(O)c1ccc(CNC(=O)c2cc(Cl)cc3ccn(Cc4ccc5ccccc5n4)c23)cc1 [Example 57]; 9.07
2. O=C(O)c1ccc(CNC(=O)c2cc(Cl)cc3ccn(Cc4csc(-c5ccccc5)n4)c23)cc1 [Example 208]; 8.74
3. O=C(NC[C@H]1CC[C@H](C(=O)O)CC1)c1cc(Cl)cc2ccn(Cc3csc(-c4ccccc4)n3)c12 [Example 209]; 8.72
4. C[C@H](NC(=O)c1cccc2ccn(Cc3ccc(-c4ccccc4)cn3)c12)c1ccc(C(=O)O)cc1 [Example 115]; 9.00
5. O=C(NC[C@H]1CC[C@@H](C(=O)O)CC1)c1cccc2ccn(Cc3ccc(Cl)cc3)c12 [Example 137]; 8.04

----------
- assay_target: rat EP4 receptor (Rattus norvegicus, UniProt P43114)
- Sequence (P43114 whole entry): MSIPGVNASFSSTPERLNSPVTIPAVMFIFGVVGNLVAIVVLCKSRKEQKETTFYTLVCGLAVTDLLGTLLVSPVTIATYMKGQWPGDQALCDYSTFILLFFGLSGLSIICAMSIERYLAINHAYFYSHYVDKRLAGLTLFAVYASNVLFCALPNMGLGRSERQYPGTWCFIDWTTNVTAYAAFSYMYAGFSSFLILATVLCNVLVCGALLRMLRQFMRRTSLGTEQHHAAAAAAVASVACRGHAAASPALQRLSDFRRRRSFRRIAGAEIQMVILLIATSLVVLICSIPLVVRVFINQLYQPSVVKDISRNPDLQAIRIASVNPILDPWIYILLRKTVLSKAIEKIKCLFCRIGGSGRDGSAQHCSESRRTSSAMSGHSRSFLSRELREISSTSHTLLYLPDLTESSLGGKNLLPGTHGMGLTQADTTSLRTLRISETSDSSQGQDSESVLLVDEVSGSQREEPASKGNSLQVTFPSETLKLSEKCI
- experimental_protocol: In vivo rat EP4 receptor antagonistic activity (ONO-4819/LPS, plasma TNF-α)
- assay_conditions: SD rat, oral, dose 0.01 mg/kg
Mark rule met only when Inhibitory rate (%) stays strictly below 50%. Values equal to the cut-off are rule not met.

1) O=C(NC[C@H]1CC[C@H](C(=O)O)CC1)c1cc(C(F)(F)F)cc2ccn(Cc3csc(-c4ccccc4)n3)c12 [Example 213]; rule not met
2) O=C(O)c1ccc(CNC(=O)c2cc(Cl)cc3ccn(Cc4csc(-c5ccccc5)n4)c23)cc1 [Example 208]; rule met
3) O=C(NC[C@H]1CC[C@H](C(=O)O)CC1)c1cccc2ccn(Cc3cc4ccccc4s3)c12 [Example 206]; rule not met
4) Cc1cc(C(=O)NC[C@H]2CC[C@H](C(=O)O)CC2)c2c(ccn2Cc2ccc3ccccc3n2)c1 [Example 96]; rule not met

----------
- assay_target: rat EP4 receptor (Rattus norvegicus, UniProt P43114)
- experimental_protocol: In vivo rat EP4 receptor antagonistic activity (ONO-4819/LPS, plasma TNF-α)
- assay_conditions: SD rat, oral, dose 0.03 mg/kg
Tag: satisfied if measured Inhibitory rate (%) is not below 80%, not satisfied if it is.

1. O=C(NC[C@H]1CC[C@H](C(=O)O)CC1)c1cc(Cl)cc2ccn(CCOc3ccc(Cl)cc3)c12; not satisfied
2. O=C(NC[C@H]1CC[C@H](C(=O)O)CC1)c1cc(C(F)(F)F)cc2ccn(Cc3cc4ccccc4cn3)c12; not satisfied
3. C[C@H](NC(=O)c1cccc2ccn(Cc3ccc(-c4ccccc4)cn3)c12)c1ccc(C(=O)O)cc1; not satisfied
4. O=C(O)c1ccc(CNC(=O)c2cc(Cl)cc3ccn(Cc4ccc5ccccc5n4)c23)cc1; satisfied
5. O=C(O)c1ccc(CNC(=O)c2cc(Cl)cc3ccn(Cc4cc5ccccc5cn4)c23)cc1; not satisfied
6. CN(NC(=O)c1cccc2ccn(Cc3csc(-c4ccccc4)n3)c12)c1ccc(C(=O)O)cc1; satisfied
7. O=C(NC[C@H]1CC[C@H](C(=O)O)CC1)c1cc(C(F)(F)F)cc2ccn(Cc3ccc4ccccc4n3)c12; satisfied
8. O=C(O)c1ccc(CNC(=O)c2cccc3ccn(Cc4cc5ccccc5o4)c23)cc1; not satisfied

----------
What follows is a record of Ki for rat EP4 receptor (Rattus norvegicus, UniProt P43114).
observation_type: Ki (nM)

1. CN(NC(=O)c1cccc2ccn(Cc3csc(-c4ccccc4)n3)c12)c1ccc(C(=O)O)cc1 [Example 207]; 1.1
2. O=C(NC[C@H]1CC[C@H](C(=O)O)CC1)c1cc(C(F)(F)F)cc2ccn(Cc3cc4ccccc4cn3)c12 [Example 159]; 2.1
3. O=C(NC[C@H]1CC[C@H](C(=O)O)CC1)c1cc(Cl)cc2ccn(Cc3cc4ccccc4o3)c12 [Example 227]; 1.7
4. O=C(NC[C@H]1CC[C@H](C(=O)O)CC1)c1c(F)ccc2ccn(Cc3cc4ccccc4cn3)c12 [Example 226]; 2.8
5. O=C(NC[C@H]1CC[C@H](C(=O)O)CC1)c1cc(C(F)(F)F)cc2ccn(Cc3ccc(Cl)cn3)c12 [Example 229]; 3.9
6. O=C(NC[C@H]1CC[C@H](C(=O)O)CC1)c1cc(Cl)cc2ccn(Cc3cc4ccccc4cn3)c12 [Example 146]; 1.8
7. O=C(O)c1ccc(CNC(=O)c2cc(Cl)cc3ccn(CCOc4ccc(Cl)cc4)c23)cc1 [Example 211]; 1.7

----------
pIC50 by entry:
- assay_target: UniProt P43114
- experimental_protocol: Rat EP4 receptor antagonistic activity by measurement of cAMP amount (rEP4 cAMP HTRF assay, CHO cells)
- assay_conditions: inhibition of cAMP, PGE2 100 nM, CHO cells expressing rat EP4
pIC50: −log10 of the molar value.
observation_type: pIC50

1. O=C(NC[C@H]1CC[C@H](C(=O)O)CC1)c1cc(Cl)cc2ccn(Cc3ccc4ccccc4n3)c12; 9.05
2. O=C(NC[C@H]1CC[C@H](C(=O)O)CC1)c1cc(C(F)(F)F)cc2ccn(Cc3ccc4ccccc4n3)c12; 8.96
3. C[C@H](NC(=O)c1cccc2ccn(Cc3ccc(-c4ccccc4)cc3)c12)c1ccc(C(=O)O)cc1; 9.00
4. O=C(O)c1ccc(CNC(=O)c2cc(Cl)cc3ccn(Cc4ccc5ccccc5n4)c23)cc1; 9.12
